- Tested on: Mycobacterium tuberculosis Erdman (autoluminescent)
- assay.details: Einf, fitted maximum growth inhibition of three-drug combination (fraction); higher = stronger maximal inhibition
- test.parameters: in vitro model: dormancy (butyrate + nitrate, low O2); time point: constant (~7 days, model-specific)
So I've got a bunch of molecules here, and I need their Einf values.

Item: CC(C)/N=c1\cc2n(-c3ccc(Cl)cc3)c3ccccc3nc-2cc1Nc1ccc(Cl)cc1 [clofazimine] + COc1c(N2C[C@@H]3CCCN[C@@H]3C2)c(F)cc2c(=O)c(C(=O)O)cn(C3CC3)c12 [moxifloxacin] + CO[C@H]1/C=C/O[C@@]2(C)Oc3c(C)c(O)c4c(O)c(c(/C=N/N5CCN(C6CCCC6)CC5)c(O)c4c3C2=O)NC(=O)/C(C)=C\C=C\[C@H](C)[C@H](O)[C@@H](C)[C@@H](O)[C@@H](C)[C@H](OC(C)=O)[C@@H]1C [rifapentine] | Einf: 0.916

Item: CC[C@@H](CO)NCCN[C@@H](CC)CO [ethambutol] + NC(=O)c1cnccn1 [pyrazinamide] + CO[C@H]1/C=C/O[C@@]2(C)Oc3c(C)c(O)c4c(O)c(c(/C=N/N5CCN(C6CCCC6)CC5)c(O)c4c3C2=O)NC(=O)/C(C)=C\C=C\[C@H](C)[C@H](O)[C@@H](C)[C@@H](O)[C@@H](C)[C@H](OC(C)=O)[C@@H]1C [rifapentine] | Einf: 0.87

Item: COc1nc2ccc(Br)cc2cc1[C@@H](c1ccccc1)[C@@](O)(CCN(C)C)c1cccc2ccccc12 [bedaquiline] + NNC(=O)c1ccncc1 [isoniazid] + NC(=O)c1cnccn1 [pyrazinamide] | Einf: 0.922
